This collection of values is drawn from ChEMBL document CHEMBL4340515.

system: CNE; assay: Antiproliferation activity against human CNE1 cells assessed as reduction in cell viability incubated for 48 hrs by MTT assay; format: functional, cell-based
Activity calls are given as the source filed them. The calls are words filed in the database; no cut-off is given here.
quantity.measured: Activity

Please review the entries below; each comes with its answer.
given.smiles: O=C1CCCCC(=O)C1=CSc1ccccc1C(F)(F)F
Activity: Active
--
given.smiles: O=C1CCCCC(=O)C1=CSc1ccccc1[N+](=O)[O-]
Activity: Active
--
given.smiles: O=C1CCCCC(=O)C1=CSc1ccccc1F
Activity: Active
--
given.smiles: O=C1CCCCC(=O)C1=CSc1ccccc1Cl
Activity: Active
--
given.smiles: Cc1ncccc1SC=C1C(=O)CCCCC1=O
Activity: Active

In: Which measured Activity value corresponds to O=C1CCCCC(=O)C1=CSc1ccccc1Br ?
Out: Active

In: Which measured Activity value corresponds to N#Cc1ccccc1SC=C1C(=O)CCCCC1=O ?
Out: Active
